Form field: normalized growth (one value per entry).
assay: chemical genetic growth profiling, strain panel (AID 1159580);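 also: tested at 20 µM; growth read once vehicle control cultures reached saturation at 30 °C; 1 = growth at the plate median or of vehicle wells; lower values mean less growth of the strain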; conditions: S. cerevisiae deletion strains, growth OD, locus YDL005C, strain med2, hits give low values
Hit rate of the full screen: of about 5,500 compounds, about 2,000 (36%) were called active. About 18% were inconclusive and are not listed. The list shows a part of the results.
Keep it simple and answer with nothing but the number.

Here are 5 molecules together with their reported answers.
molecule	normalized growth
C[C@@H]1CC(Cl)CC[C@H]1C(=O)OC(C)(C)C (stereo not given in full)	0.991
C[C@]12CCC(=O)C=C1C=CC1C2CC[C@@]2(C)C1CC[C@@]2(O)CCC(=O)O (stereo not given in full)	1.03
C=CCc1ccc(O)c(OC)c1	1.01
Cc1[nH]c2ccccc2c1CN(C)C	1.03
CC(=O)S[C@@H]1CC2=CC(=O)CC[C@]2(C)[C@H]2CC[C@@]3(C)[C@@H](CC[C@@]34CCC(=O)O4)C12 (stereo not given in full)	1.01

Which normalized growth value is on record for CC#CC1(O)CCC2C3CCC4=CC(=O)CCC4=C3C(c3ccc(N(C)C)cc3)CC21C (stereo not given) ?
1.01

Which normalized growth value is on record for CCC(C)C(=O)O[C@@H]1C[C@@]2(C)[C@H](c3ccoc3)OC(=O)CC23OC2(C)OC34[C@H](OC(=O)C(C)C)[C@@]3(O)[C@@H](OC(=O)C5(C)OC5C)[C@@]5(C)C[C@]3(O)[C@@](C)([C@H]5CC(=O)OC)C14O2 (stereo not given in full) ?
1.02

Which normalized growth value is on record for C=CCc1ccc(OC)cc1 ?
1.02

Which normalized growth value is on record for CC1(O)CC2C(CC1O)C2(C)C (stereo not given) ?
0.995

Which normalized growth value is on record for C=CC[C@]1(O)CCC2C3CCC4=CC(=O)CCC4=C3C=C[C@@]21C (stereo not given in full) ?
0.996

----------
experiment: chemical genetic growth profiling, strain panel (AID 1159580);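 also: tested at 20 µM; growth read once vehicle control cultures reached saturation at 30 °C; 1 = growth at the plate median or of vehicle wells; lower values mean less growth of the strain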; conditions: S. cerevisiae deletion strains, growth OD, locus YMR263W, strain SAP30, hits give low values
The whole screen tested about 5,500 compounds, of which about 2,000 (36%) were called active. Not shown: some 18% with an inconclusive outcome. The list shows a part of the results.
Form field: normalized growth (one value per entry).
Keep it simple and answer with nothing but the number.

compound	measured number
CCCCCCC(C)OC(=O)COc1cc(Cl)c(Cl)cc1Cl (configuration not stated)	1.01

Which normalized growth value is on record for COc1ccc(/C=C2\CC/C(=C\c3ccc(OC)c(OC)c3)C2=O)cc1OC ?
0.973

----------
test: chemical genetic growth profiling, strain panel (AID 1159580);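 also: tested at 20 µM; growth read once vehicle control cultures reached saturation at 30 °C; 1 = growth at the plate median or of vehicle wells; lower values mean less growth of the strain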; settings: S. cerevisiae deletion strains, growth OD, locus YJR075W, strain HOC1, hits give low values
Hit rate of the full screen: of about 5,500 compounds, about 2,000 (36%) were called active. Inconclusive results (about 18%) are left out. The list shows a part of the results.
measure: normalized growth
Keep it simple and answer with nothing but the number.

Here are 4 molecules together with their reported answers.
molecule	measured number
COC(=O)CC1C2(C)CC34OC5(C)OC6(C7/C(=C(/O)C(C)C)C(=O)OC(c8ccoc8)C7(C)C(OC(=O)C(C)C)C(OC)C6(O5)C13C)C(OC)C4(OC)C2OC(C)=O (stereo not given)	1.01
C[C@]12CCC(=O)C=C1C=CC1C2CC[C@@]2(C)C1CC[C@@]2(O)CCC(=O)O (stereo not given in full)	0.991
CCN(CC)C(=O)N1CCN(C)CC1	1.03
COc1c(Br)cc([N+](=O)[O-])c(OC)c1C(N)=O	1.01

Which normalized growth value is on record for CC(=O)S[C@@H]1CC2=CC(=O)CC[C@]2(C)[C@H]2CC[C@@]3(C)[C@@H](CC[C@@]34CCC(=O)O4)C12 (stereo not given in full) ?
1.01

Entry source: PubChem BioAssay AID1159580
